B1: FAM189A2 (parent)
chain: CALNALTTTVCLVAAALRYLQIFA

# Variants of: B1
# PROTOCOL_DESCRIPTION: protein stability index of a GFP-peptide fusion (GPS, HEK-293T) (PSI 1-6); higher = more stable;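 note: lentivirally expressed fusions sorted by FACS into six bins by GFP to DsRed ratio, PSI derived from sequencing read proportions per bin multiplied by bin number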
# CONDITION_SUMMARY: c terminus: a fixed tail appended
Below, each of the variants is paired with its reported protein stability index value.
MEASURED_PARAMETER: protein stability index

{"MUTATIONS": "L3N", "OBSERVED_MEASUREMENT": 2.3}
{"MUTATIONS": "T8C", "OBSERVED_MEASUREMENT": 2.95}
{"MUTATIONS": "F23G", "OBSERVED_MEASUREMENT": 4.67}
{"MUTATIONS": "A16H", "OBSERVED_MEASUREMENT": 3.78}
{"MUTATIONS": "A16F", "OBSERVED_MEASUREMENT": 2.55}
{"MUTATIONS": "A16Y", "OBSERVED_MEASUREMENT": 2.27}
{"MUTATIONS": "A24P", "OBSERVED_MEASUREMENT": 2.09}
{"MUTATIONS": "L20F", "OBSERVED_MEASUREMENT": 2.75}
{"MUTATIONS": "R18I", "OBSERVED_MEASUREMENT": 3.84}
{"MUTATIONS": "Q21L", "OBSERVED_MEASUREMENT": 3.19}
{"MUTATIONS": "Y19I", "OBSERVED_MEASUREMENT": 3.74}
{"MUTATIONS": "L6K", "OBSERVED_MEASUREMENT": 1.77}
{"MUTATIONS": "T8P", "OBSERVED_MEASUREMENT": 2.92}
{"MUTATIONS": "L3E", "OBSERVED_MEASUREMENT": 3.25}
{"MUTATIONS": "L20R", "OBSERVED_MEASUREMENT": 3.02}
{"MUTATIONS": "V13E", "OBSERVED_MEASUREMENT": 3.61}
{"MUTATIONS": "A15M", "OBSERVED_MEASUREMENT": 3.68}
{"MUTATIONS": "Q21S", "OBSERVED_MEASUREMENT": 1.64}
{"MUTATIONS": "L3R", "OBSERVED_MEASUREMENT": 2.9}
{"MUTATIONS": "R18W", "OBSERVED_MEASUREMENT": 2.99}
{"MUTATIONS": "I22Y", "OBSERVED_MEASUREMENT": 2.44}
{"MUTATIONS": "A15Q", "OBSERVED_MEASUREMENT": 2.05}
{"MUTATIONS": "A14R", "OBSERVED_MEASUREMENT": 2.23}
{"MUTATIONS": "L17C", "OBSERVED_MEASUREMENT": 3.24}
{"MUTATIONS": "T9D", "OBSERVED_MEASUREMENT": 2.65}
{"MUTATIONS": "L17Y", "OBSERVED_MEASUREMENT": 2.25}
{"MUTATIONS": "T7S", "OBSERVED_MEASUREMENT": 2.85}
{"MUTATIONS": "I22S", "OBSERVED_MEASUREMENT": 3.43}
{"MUTATIONS": "A5M", "OBSERVED_MEASUREMENT": 3.65}
{"MUTATIONS": "A5T", "OBSERVED_MEASUREMENT": 3.6}
{"MUTATIONS": "C1K", "OBSERVED_MEASUREMENT": 3.08}
{"MUTATIONS": "F23T", "OBSERVED_MEASUREMENT": 2.22}
{"MUTATIONS": "V10A", "OBSERVED_MEASUREMENT": 2.46}
{"MUTATIONS": "V13D", "OBSERVED_MEASUREMENT": 2.59}
{"MUTATIONS": "L12G", "OBSERVED_MEASUREMENT": 3.05}
{"MUTATIONS": "L17K", "OBSERVED_MEASUREMENT": 3.29}
{"MUTATIONS": "T7M", "OBSERVED_MEASUREMENT": 4.03}
{"MUTATIONS": "T7D", "OBSERVED_MEASUREMENT": 2.18}
{"MUTATIONS": "L3V", "OBSERVED_MEASUREMENT": 2.62}
{"MUTATIONS": "V13M", "OBSERVED_MEASUREMENT": 2.25}
{"MUTATIONS": "T9C", "OBSERVED_MEASUREMENT": 2.34}
{"MUTATIONS": "L20K", "OBSERVED_MEASUREMENT": 3.6}
{"MUTATIONS": "T7Q", "OBSERVED_MEASUREMENT": 3.37}
{"MUTATIONS": "L20I", "OBSERVED_MEASUREMENT": 2.76}
{"MUTATIONS": "A15Y", "OBSERVED_MEASUREMENT": 3.03}
{"MUTATIONS": "T8S", "OBSERVED_MEASUREMENT": 2.63}
{"MUTATIONS": "L17A", "OBSERVED_MEASUREMENT": 1.47}
{"MUTATIONS": "A15C", "OBSERVED_MEASUREMENT": 2.71}
{"MUTATIONS": "L6Q", "OBSERVED_MEASUREMENT": 2.83}
{"MUTATIONS": "L17H", "OBSERVED_MEASUREMENT": 2.72}
{"MUTATIONS": "Y19F", "OBSERVED_MEASUREMENT": 3.29}
{"MUTATIONS": "T9N", "OBSERVED_MEASUREMENT": 2.79}
{"MUTATIONS": "A2R", "OBSERVED_MEASUREMENT": 3.42}
{"MUTATIONS": "I22E", "OBSERVED_MEASUREMENT": 3.28}
{"MUTATIONS": "I22N", "OBSERVED_MEASUREMENT": 2.58}
{"MUTATIONS": "V10R", "OBSERVED_MEASUREMENT": 1.62}
{"MUTATIONS": "T9E", "OBSERVED_MEASUREMENT": 2.63}
{"MUTATIONS": "V10L", "OBSERVED_MEASUREMENT": 3.21}
{"MUTATIONS": "A16V", "OBSERVED_MEASUREMENT": 3.33}
{"MUTATIONS": "C11T", "OBSERVED_MEASUREMENT": 2.74}
{"MUTATIONS": "A5L", "OBSERVED_MEASUREMENT": 2.77}
{"MUTATIONS": "R18L", "OBSERVED_MEASUREMENT": 2.98}
{"MUTATIONS": "R18P", "OBSERVED_MEASUREMENT": 1.82}
{"MUTATIONS": "A2Q", "OBSERVED_MEASUREMENT": 3.74}
{"MUTATIONS": "V13P", "OBSERVED_MEASUREMENT": 2.88}
{"MUTATIONS": "A2M", "OBSERVED_MEASUREMENT": 2.77}
{"MUTATIONS": "L12N", "OBSERVED_MEASUREMENT": 4.01}
{"MUTATIONS": "Q21E", "OBSERVED_MEASUREMENT": 3.35}
{"MUTATIONS": "Q21K", "OBSERVED_MEASUREMENT": 2.07}
{"MUTATIONS": "Y19W", "OBSERVED_MEASUREMENT": 3.75}
{"MUTATIONS": "T7G", "OBSERVED_MEASUREMENT": 2.78}
{"MUTATIONS": "L12W", "OBSERVED_MEASUREMENT": 3.65}
{"MUTATIONS": "C11K", "OBSERVED_MEASUREMENT": 3.55}
{"MUTATIONS": "Q21R", "OBSERVED_MEASUREMENT": 1.72}
{"MUTATIONS": "A16N", "OBSERVED_MEASUREMENT": 2.1}
{"MUTATIONS": "A2T", "OBSERVED_MEASUREMENT": 4.22}
{"MUTATIONS": "L12E", "OBSERVED_MEASUREMENT": 1.51}
{"MUTATIONS": "L6N", "OBSERVED_MEASUREMENT": 3.48}
{"MUTATIONS": "V10Q", "OBSERVED_MEASUREMENT": 4.03}
{"MUTATIONS": "N4P", "OBSERVED_MEASUREMENT": 2.66}
{"MUTATIONS": "A24F", "OBSERVED_MEASUREMENT": 2.59}
{"MUTATIONS": "F23I", "OBSERVED_MEASUREMENT": 3.76}
{"MUTATIONS": "L17G", "OBSERVED_MEASUREMENT": 3.97}
{"MUTATIONS": "V10T", "OBSERVED_MEASUREMENT": 2.65}
{"MUTATIONS": "L3W", "OBSERVED_MEASUREMENT": 1.62}
